test system: SF-539 CNS; assay: NCI tumour cell line growth inhibition, 48 h
OBSERVED PROPERTY: TGI

So what's the measured TGI for this one? CN(C)c1ccc(Nc2ncnc3ccccc23)cc1 > 100 µM

Using the record for CCc1c(-c2ccc(OC)cc2)c(=O)oc2cc(O)ccc12 , report its TGI. > 100 µM

I'd like to know its TGI. The compound in question is C=CCc1cc(OC)c2c(c1)C(OC(C)=O)CC(c1ccc(OC)c(OC)c1)O2 (stereo unspecified) > 100 µM

GET /values?readout=TGI&item= C(=N\c1nc2cc3sc(/N=C/c4cccs4)nc3cc2s1)/c1cccs1 > 100 µM

I have this compound here, CCOC(=O)/C(=C\c1ccccc1)C(=O)CCN1CCOCC1 , and I need its recorded TGI. 16 µM

Recorded TGI for COC(=O)CCC1=NOC(CC2CC(CCC(=O)OC)=NO2)C1 (stereo unspecified) , please? > 100 µM

Please report the recorded TGI for COc1ccc(Nc2nn3c(=O)c4c(C)c(C)sc4nc3s2)cc1 . > 100 µM

Reported TGI, compound O=C1C=CC(=O)c2c1ccc1c3ccccc3n(CCCCCCCCn3c4ccccc4c4ccc5c(c43)C(=O)C=CC5=O)c21 : ____ > 100 µM

Give the measured TGI of O=C(Nc1cccc(-n2ccc3c(NC(=O)c4ccccc4)nccc32)c1)Nc1ccc(Cl)c(C(F)(F)F)c1 . 3.98 µM

So what does the record say about TGI for COc1ccc2c(c1)[C@@H]1c3cc(OC)c(OC)cc3CCN1CCC2 ? > 100 µM

Requested read-out: TGI. Entry: COC1=CC(=O)c2c(ccc3ncnc(N)c23)C1=O 3.41 µM

What does the record list as TGI for COC(=O)[C@@H](C)C[C@H](Cc1ccccc1)NC(=O)c1cccc([C@@H](C[C@H](C(C)C)N(C)C(=O)[C@@H](NC(=O)[C@H]2CCCCN2C)C2CC2)OC(C)=O)n1 ? 0.0764 µM

Field request: TGI | item: CC(=O)OC1CC2CC(=O)CC1N2C (stereo unspecified) > 100 µM

Given CCN(CC)CCn1ncc2c3c(=O)c4cccnc4n(CCN(CC)CC)c3ccc21 , state its recorded TGI. > 10 µM

For the compound shown here, Cc1c(NC(=O)/C(=N/NC(=S)N=N)C2C(=O)CC(C)(C)CC2=O)c(O)c2ccccc2c1O , give the reported TGI. 12.4 µM

Could you share which TGI value was measured for COc1ccc2c(c1)C1C(CO2)C(c2ccccc2)=NN1c1ccccc1 (stereo unspecified) ? > 100 µM

// query TGI value for entry COc1ncc(-c2ccc3nccc(C#CCCCCC(=O)O)c3c2)cc1NS(=O)(=O)c1ccc(F)cc1F 5.87 µM

Field request: TGI | item: O=[N+]([O-])c1ccc(C2N3CCCCC3[C@H]3CCCCN23)cc1 (stereo partly specified) > 100 µM

What does the data say about its TGI? Entry: Oc1c(CN2CCOCC2)ccc(CN2CCOCC2)c1O > 100 µM

Could you tell me which TGI is on file for CN(C)c1nc(=Nc2ccc3c(c2)OCO3)ss1 ? > 100 µM

Query: TGI; subject: O=C1CSC(c2ccccc2O)N1c1ccc(-c2ccc(-n3c(-c4ccccc4)nc4ccccc4c3=O)cc2)cc1 (stereo unspecified) > 100 µM

So what does the record say about TGI for CCCc1nc(N)nc(C(=O)Nc2cccc(C(F)(F)F)c2)c1CC ? > 100 µM

Consider the compound shown here: Brc1ccc(SCN(CSc2ccc(Br)cc2)Cc2ccccc2)cc1 What is its recorded TGI? 3.88 µM

What value of TGI has been reported for the following compound? CN(/N=C(\C(=O)O)c1ccccc1)C1=NCCCCN1 > 100 µM

Name the recorded TGI for CCOC(=O)c1ccc2c(c1)[n+](=O)c(C(=O)C1CCCS1)c(C(F)(F)F)n2[O-] (stereo unspecified) . 2.04 µM

Reported TGI, compound COc1cc(/C=C2/SC(c3ccccc3)N(c3cccc(NC(C)=O)c3)C2=O)cc(OC)c1OC (stereo unspecified) : ____ > 100 µM

Fill in: TGI of c1ccc2c(c1)c1ccccc1c1n[se]nc21 is ___ 92.2 µM

Recorded TGI of COC(=O)[C@]12CC[C@H]3CN(C(=O)OCc4ccccc4)[C@H]([C@H]31)[C@H](c1ccco1)N2 , please. > 100 µM

Which TGI reading was recorded for the compound CCCCC(=O)OC[n+]1cccc(-c2c(COC(=O)NC(C)C)c(COC(=O)NC(C)C)c3n2CCC3)c1 ? > 76 µM

Request the reported TGI associated with O=C(/C=C/c1cc2ccccc2[nH]c1=O)c1ccc(Cl)cc1 39.3 µM

Tell me the measured TGI of CCCSc1ccc2nc(NC(=O)OC)[nH]c2c1 , please. > 24.4 µM

Item COc1cc(C)c2c(c1C=O)Oc1c(c(C)c(O)c3c1C(O)OC3=O)OC2=O (stereo unspecified) has what recorded TGI? > 100 µM

Consider the compound shown here: CCOC(=O)NC(=O)c1cn(CCCOC(=O)CCCCCCCCC(=O)OCCCn2cc(C(=O)NC(=O)OCC)c(=O)n(C)c2=O)c(=O)n(C)c1=O What is its recorded TGI? > 100 µM

Field request: TGI | item: CC1(C)OC(=O)C(c2cccs2)C(=O)O1 > 100 µM

Any idea what its TGI is? The compound is O=C(Nc1c(Cl)cccc1Cl)c1c(Cl)c(Cl)c(Cl)c(Cl)c1-c1nc2ccccc2[nH]1 > 100 µM

Suppose we examine the compound COc1ccc(N2C(=O)C3c4[nH]c5ccccc5c4C4CCC(c5ccccc5)CC4C3C2=O)cc1 (stereo unspecified) ; what TGI value has been reported? 7.4 µM

I would be grateful if you could share the reported TGI for NCCc1c[nH]c2ccc(OC(=O)C(=O)O)cc12 . > 100 µM

Returns the measured TGI for the input compound. Input: CCCCC1CC(c2ccc(Cl)cc2)=NO1 (stereo unspecified) > 100 µM

Report TGI for C=C1CC2(OC1=O)C(=O)N(C)c1ccc(I)cc12 (stereo unspecified) please. 2.8 µM

Which value of TGI has been reported for COc1ccc(/C=C/c2nsc(/C=C/c3ccc(OC)cc3)n2)cc1 in the records? > 100 µM

Given the compound CNc1ccc(/C=C2\C=Cc3ccccc32)cc1 , what is its reported TGI? > 100 µM
